Assay: Toxicity test, LD50 mice p.os
Details: mouse, in vivo, po
measurement_type: LD50 (mg/kg)
Your answer is read as mg/kg, so omit the unit and give the number.

{"compound": "CC(=O)NCC(=O)OC1N=C(c2ccccc2)c2cc(Cl)ccc2NC1=O (stereo not shown) [Example 5]", "LD50 (mg/kg)": 1400}

Could you now look at the following compound, please?
// LD50 value for CC(=O)NCCCC(=O)OC1N=C(c2ccccc2)c2cc(Cl)ccc2N(C)C1=O (stereo not shown) [Example 4] : 1000

---

Experiment: Toxicity test, LD50 mice p.os
Conditions: mouse, in vivo, po
Reported LD50 values for a set of compounds
Your answer is read as mg/kg, so omit the unit and give the number.

{"compound": "CC(=O)NCCCC(=O)OC1N=C(c2ccccc2Cl)c2cc(Cl)ccc2NC1=O (stereo not drawn) [Example 3]", "measurement_type": "LD50", "value_observed": 1200}

// LD50 value for CC(=O)NCCCC(=O)OC1N=C(c2ccccc2)c2cc(Cl)ccc2NC1=O (stereo not drawn) [Example 1] : 1500

Just for reference, patent US4487771A is where these values come from.
